Assay: Growth and viability of lymphoblastoid cell cultures of the Namalva strain
Type: cell-based
Conditions: human, namalva lymphoblastoid cells; 10 g/l in 9% of NaCl; control = 100%; read-out: Cell Culture Viability %
QUANTITY: viability (%)
Give the value, in units of %, as a plain number.

Request: Requested field: viability. Item: `C[N+](C)(C)CCOP(=O)([O-])OCCC(F)(F)C(F)(F)C(F)(F)C(F)(F)C(F)(F)C(F)(F)C(F)(F)C(F)(F)F`
Response: 102

###

Collected Relative Increase % (particle size) values appear next to each entry.
Experiment: Fluorocarbon (F-decalin) emulsions: average particle size and stability
Type: physicochemical
Details: Table III; 1% compound + 2% EYP (Ref.: 3% EYP), 20% w/v F-decalin, 1 month at 25° C.

Use these answered entries as a reference point.
O=P(OCCCCCCCCCCCC(F)(F)C(F)(F)C(F)(F)C(F)(F)C(F)(F)C(F)(F)C(F)(F)C(F)(F)F)(N1CCOCC1)N1CCOCC1 [Compound 4]: 50%
O=P(OCCCCCCCCCCCC(F)(F)C(F)(F)C(F)(F)C(F)(F)C(F)(F)C(F)(F)F)(N1CCOCC1)N1CCOCC1 [Compound 3]: 50%

Request: Requested field: Relative Increase % (particle size). Item: C[N+](C)(C)CCOP(=O)([O-])OCCC(F)(F)C(F)(F)C(F)(F)C(F)(F)C(F)(F)C(F)(F)C(F)(F)C(F)(F)F [Compound 5]
Response: 100%

Request: Requested field: Relative Increase % (particle size). Item: C[N+](C)(C)CCOP(=O)([O-])OCCCCCCCCCCCC(F)(F)C(F)(F)C(F)(F)C(F)(F)C(F)(F)C(F)(F)C(F)(F)C(F)(F)F [Compound 6]
Response: 110%

###

Assay: Interfacial tension and spreading coefficient between water and perfluorodecalin
Format: physicochemical
Settings: 1 g/l in water; -56 mNm^-1 in the absence of surfactant
QUANTITY: Spreading Coef. (mNm^-1)
Give the value, in units of mNm^-1, as a plain number.

Use these answered entries as a reference point.
O=P(OCCC(F)(F)C(F)(F)C(F)(F)C(F)(F)C(F)(F)C(F)(F)F)(N1CCOCC1)N1CCOCC1: -1.6
C[N+](C)(C)CCOP(=O)([O-])OCCC(F)(F)C(F)(F)C(F)(F)C(F)(F)C(F)(F)C(F)(F)C(F)(F)C(F)(F)F: -4.6
C[N+](C)(C)CCOP(=O)([O-])OCCCCCCCCCCCC(F)(F)C(F)(F)C(F)(F)C(F)(F)C(F)(F)C(F)(F)C(F)(F)C(F)(F)F: -16.5

Request: Requested field: Spreading Coef.. Item: `O=P(OCCC(F)(F)C(F)(F)C(F)(F)C(F)(F)C(F)(F)C(F)(F)C(F)(F)C(F)(F)F)(N1CCOCC1)N1CCOCC1`
Response: -0.6

###

Test: Growth and viability of lymphoblastoid cell cultures of the Namalva strain
Assay type: cell-based
Details: human, namalva lymphoblastoid cells; 1 g/l in 9% of NaCl; control = 100%; read-out: Cell Culture Growth %
Collected activity values appear next to each entry.

Use these answered entries as a reference point.
C[N+](C)(C)CCOP(=O)([O-])OCC(COC(=O)CCCCCCCCCCC(F)(F)C(F)(F)C(F)(F)C(F)(F)C(F)(F)C(F)(F)F)OC(=O)CCCCCCCCCCC(F)(F)C(F)(F)C(F)(F)C(F)(F)C(F)(F)C(F)(F)F (racemic) [Compound 10]: 99%
C[N+](C)(C)CCOP(=O)([O-])OCC(COCCCCCCCCCCCC(F)(F)C(F)(F)C(F)(F)C(F)(F)F)OCCCCCCCCCCCC(F)(F)C(F)(F)C(F)(F)C(F)(F)F (racemic) [Compound 13]: 55%
C[N+](C)(C)CCOP(=O)([O-])OCC(COC(=O)CCCCCCCCCCC(F)(F)C(F)(F)C(F)(F)C(F)(F)F)OC(=O)CCCCCCCCCCC(F)(F)C(F)(F)C(F)(F)C(F)(F)F (racemic) [Compound 11]: 60%

Request: Requested field: activity. Item: O=P(OCCC(F)(F)C(F)(F)C(F)(F)C(F)(F)C(F)(F)C(F)(F)C(F)(F)C(F)(F)F)(N1CCOCC1)N1CCOCC1 [Compound 2]
Response: 67%
